Molecular target: T1, human IL-18BP (human, UniProt O95998 31-194)
T1 construct: UniProt printed as 095998; also called hIL-18BP
T1 sequence: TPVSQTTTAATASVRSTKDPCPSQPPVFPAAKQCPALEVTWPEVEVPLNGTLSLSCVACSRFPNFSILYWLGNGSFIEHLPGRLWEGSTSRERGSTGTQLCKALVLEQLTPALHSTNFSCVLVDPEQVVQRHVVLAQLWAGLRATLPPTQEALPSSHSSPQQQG
Test: BLI, apparent KD
quantity name: pKd
Remember the convention: pKd equals -log10 of concentration in molar.

Solved entries:
binder="SA302a HC-D33G (antibody, V domains shown, IgG1 kappa) VH: QVQLQESGPGLVKPSQTLSLTCTVSGYSITSGYNAHWIRQPPGKGLEWIGYIHYSGSTNYNPSLKSRVTISRDTSKNQFSLKLSSVTAADTAVYYCARNYGSIYVNYFDYWGQGTLVTVSS VL: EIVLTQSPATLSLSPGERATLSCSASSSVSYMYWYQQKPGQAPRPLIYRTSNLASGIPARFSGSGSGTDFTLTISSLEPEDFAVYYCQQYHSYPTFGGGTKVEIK" readout_number=8.40
binder="SA302a HC-T30G (antibody, V domains shown) VH: QVQLQESGPGLVKPSQTLSLTCTVSGYSIGSDYNAHWIRQPPGKGLEWIGYIHYSGSTNYNPSLKSRVTISRDTSKNQFSLKLSSVTAADTAVYYCARNYGSIYVNYFDYWGQGTLVTVSS VL: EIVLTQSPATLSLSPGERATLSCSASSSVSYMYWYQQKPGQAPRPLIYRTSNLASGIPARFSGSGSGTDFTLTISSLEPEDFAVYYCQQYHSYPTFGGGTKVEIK" readout_number=8.86

Q: For the binder SA302a HC-D33N (antibody, V domains shown) VH: QVQLQESGPGLVKPSQTLSLTCTVSGYSITSNYNAHWIRQPPGKGLEWIGYIHYSGSTNYNPSLKSRVTISRDTSKNQFSLKLSSVTAADTAVYYCARNYGSIYVNYFDYWGQGTLVTVSS VL: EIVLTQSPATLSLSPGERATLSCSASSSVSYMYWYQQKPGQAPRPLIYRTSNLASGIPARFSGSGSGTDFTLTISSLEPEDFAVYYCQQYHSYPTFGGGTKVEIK , give its measured pKd value.
A: 8.78

Q: For the binder SA302a HC-T30V (antibody, V domains shown) VH: QVQLQESGPGLVKPSQTLSLTCTVSGYSIVSDYNAHWIRQPPGKGLEWIGYIHYSGSTNYNPSLKSRVTISRDTSKNQFSLKLSSVTAADTAVYYCARNYGSIYVNYFDYWGQGTLVTVSS VL: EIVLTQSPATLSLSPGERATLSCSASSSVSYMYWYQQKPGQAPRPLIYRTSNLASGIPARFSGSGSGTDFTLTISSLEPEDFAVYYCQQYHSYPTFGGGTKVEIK , give its measured pKd value.
A: 8.97

Q: For the binder SA302a HC-N33bV (antibody, V domains shown) VH: QVQLQESGPGLVKPSQTLSLTCTVSGYSITSDYVAHWIRQPPGKGLEWIGYIHYSGSTNYNPSLKSRVTISRDTSKNQFSLKLSSVTAADTAVYYCARNYGSIYVNYFDYWGQGTLVTVSS VL: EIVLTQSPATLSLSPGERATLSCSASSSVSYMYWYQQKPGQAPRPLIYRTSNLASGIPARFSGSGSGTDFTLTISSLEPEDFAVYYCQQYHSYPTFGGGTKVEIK , give its measured pKd value.
A: 8.87

Data origin: patent US20250368745A1
